Measured values drawn from the DeepSol protein solubility set for this set.

experiment: soluble on expression in E. coli; label from the status in PepcDB or PDB records

Seq	soluble on expression in E. coli
MSLNRIFDAHCHIIDPQFPLIANNGYLPDPFGVGDYLATVQPLGVQGGAVVSGSFQGFDQGYLLQALRLLGPGFVGVTQLPASVTDTELDTLNAAGVRALRFNLKRGGSEQLDQLEALAVRVRERAGWHSELYIDSRELAEIETRLLKLPAISIDHLGLSAEGLPVVLRLAERGVRVKACGFGRVDFPVREALRDIHAANPNALMFGTDLPSTRAPRPFQPDDIELLIDALGEGGARQALWDNAAEFYREGHHHHHH	not soluble
MGSDKIHHHHHHMLSLSKPLQEFYRLDKCLSKHGTRFEFVNDKEIICSPDESNTHTFVILEGVVSLVRGDKVLIGIVQAPFIFGLADGVAKKEAQYKLIAESGCIGYRLSSSQTLAIIEQNQLWREAFCWIVWKSQVLELRDKQLIGNNSYDQIRATLMTMIEWDEELRSRIGVMNYIHQRTRVSRSVVAEVLAALRKGNYIEMNKGKLISINRLPSEY	not soluble

---

test: soluble on expression in E. coli; label from the status in PepcDB or PDB records

Seq	soluble on expression in E. coli
MSLRRALIIDDEEAVLKIITHFIEMKDMPIKIVGKATSGDEAVDKIIGLEPDIVFIDIQMPIYNGLEVIEKTSHLSKKINFVVITAFNYFEYAQKALRLNVKDILLKPLDMKEFTKSVEKIIGYQYTNNDLLNEILEYINLNYSNDLKLNDCARLFLTNPSNISRIFKSNLNTTFISYLNHIRIEKSIELLENTTKSINEIAEIVGYNSLNNFYKNFKIEKGMTPKVYKLNTEGHHHHHH	not soluble
SASFQRKGLQARILSTEEEEKLKRDQALVSAFKQQKLEKEAQKNWDLFYKRNSTNFFKDRHWTTREFEELRSCREYEGQKLTLLEAGCGVGNCLFPLLEEDLNLFAYACDFSPRAVDYVKQHPLYNAERCKVFQCDLTRDDLLDHVPPESVDAVTLIFVLSAVHPEKMRLVLLNVYKVLKPGRSVLFRDYGLNDHAMLRFKAGSKLGENFYVRQDGTRSYFFTDEFLAQLFVDAGYEEVVNEYVFRETVNKKEGLCVPRVFLQSKFRKPPKDPAPTSDSASL	soluble
HHPEAGNFKQRVILSHVGFDRPTVLVTEGYTAHYATHPRYQEELSKLFNANLVFVEYRYFGESMPKPCNWDYLTVENSLYDLHHVTTTLKQLYDEKWIATGISKGGQTTMFYRTYFPDDVDISVPYVAPLNQSLEDGRHEPFIANKVSTPENRKRVENFQLEVLKRKSRLLPIFEKYCSDKGYTFRIPIAEVYDFNVLEYSFALWQWGTPVNKIPETNADDHTLFKHFMAICEPDYFSEQSPYPSFNVQAAKELGYYGYDIKPFKKYLTIKSSRDYLHKVMLPPELSNLKFDKTLYNKVVKFLKENDPEMIYIYGGDDPWTASGVTWLKNKKNIKVYVLPGGSHTTRIGSFDTDTQEEIKTQINAWLNKE	not soluble
MQNVLIVGVGFMGGSFAKSLRRSGFKGKIYGYDINPESISKAVDLGIIDEGTTSIAKVEDFSPDFVMLSSPVRTFREIAKKLSYILSEDATVTDQGSVKGKLVYDLENILGKRFVGGHPIAGTEKSGVEYSLDNLYEGKKVILTPTKKTDKKRLKLVKRVWEDVGGVVEYMSPELHDYVFGVVSHLPHAVAFALVDTLIHMSTPEVDLFKYPGGGFKDFTRIAKSDPIMWRDIFLENKENVMKAIEGFEKSLNHLKELIVREAEEELVEYLKEVKIKRMEI	soluble
MISRVGADLGLSATAHVPRTDEPQKAKDFTTDQEVRWCPGCGDYVILATIRSFLPELGLRRENLMFVSGIGCSSRFPYYLDTYGLHSIHGRAPAIATGLAVTRPDLSVWVVTGDGDALSIGGNHLIHALRRNVNMTILLFNNRIYGLTKGQYSPTSEVGKVTKSTPLGSVDHPFNTLSLALGAEATFAARAMDSDRKGLTEVLRQAAAHRGTSFVEIYQDCPIFNDGSFDVLRKDGSEQRLIPLTHGEPIVFGGAGEYCVVRSGFGLKVVATADVDRDDIVVHDAHTDDPDYAYALSRLSDQDLTHTVTGVFRSVTRDTYDDMVRLQNEIAQEKDPVDDGSLQRLLTGHDTWTVE	not soluble
MDSSQVPNPVLVLVGSPRRDGNSALLAQAVAEGARQSGAAATLLFLDDYIAGFLTDEKEADARRPDDRYGELFFDHFLPARAVVLCTPVYWYGMSAQAKAFFDRSFTYYSASHPRHAEVLRRMTGKRLALAVSSEETYPGAALGIVHQLQEFTRYTHSQFVGMVHGAGNRRGEVAHDPRRPLQAAHRLGHDLLSLPYSDYRIDSPRDHQVWPGAPA	not soluble
MLDFKPIELKDRELFHEYLKDYDFLTYEYSFLTLYIWRKMYNTEFAIVDDTIVIKKRTANNGTYFMQPIGADKSKIADITLKLNTLRKNNPDFKYLYGDVETPFLEQLHENFGNLVTSHEDKNNFDYIFNSKDLIKLSGKKYHRKKNQYNQFIKKYDYRIEEIQSPEVIKNCIDLSLKWYDYKSLQSEQLKNEQKAIFDIFSNIKIFNNIKGIAVYVNNEIAGFAIGEKLNSKMATVHFEKGNYNFSGIYPFLNKSLVEIFFRDVEFINLQEDLGLEGLRRAKSAYQPIKLEKKYLVNI	not soluble
MGSDKIHHHHHHLPNLQEIFKKDNFIAWDDKVYPSILNFGAPLPKPLPRIAPNNAPLARLFIEFLYYYSMFNFKENYIGARPVMVMDRRTSQNNMVRSSTNKEVCIQDPFDEHNPGRTVRTLNRIKDVMRSTYQKFLPVEGSEFTFPTLDDIINMSPEVPKPSRAEVRNFRAEATEVNRVGLGVYCRNSFV	not soluble
MVVFDLSWTLVQADSFELLCQAAAVDADAVAEVRRCHSLGSDDDLRACAALLRGRSSTGLAERLHALIEYTDGAASVCRVLKKLGYRTTVLSPGRSFLRELVKADLGIDFVAANRHEMDSNEHFTGAILELLVNGERKAELLTMLAMREQLSPQQIIAVGDGPVSAKMLDSAGPSIAFGAPAARDGTNIGGKIQSKSLTCIWFLMGIHERDLRSFS	soluble
MPTAADNHWSMPPNPEKALMLAQRAVAVFVYDAVRLEGINFTLPEVQTLLQGVTVGGHRLSDQQIAVNQGEAWKLLFQMIRDGRFELTPDCAMALHGVAAKEEALEWGCFRSGSVLIAGTEYEPPAASELPTRFDRMIDELQHMDDVHDQAVHLFLTMARCQFFYDVNKRMGRFMMNGHLLSNGYPAINIPASSQLEFNELMLRFYDSGDQREMNAFVRSCMDERVVLIMKEELEHHHHHH	soluble
MDQKREALVGPITSSPASILELSIFYEFLKAQWCAFTIGSSEPPISPRQLNLLSLLIGPSNSDQEIPRDTVAVSWVYVGFEFGESCEQFGATDEQLRGHFEYQMICTNVQCIYFVEDGKKRRMAGVTWYLRNDEKSKNHEDYNMIAIYETIREKRFEEVQKIRKLEKEEALRRGGWLGEPTDEYTSTIFSHLKLLTLKDGRLAVFACNADGEEEKFAFNERTERYEVLEDVVEVEDRPSNYLLRII	not soluble
